- TARGET: PAK3 (human) (UniProt O75914)
- Sequence (O75914 whole entry, looked up): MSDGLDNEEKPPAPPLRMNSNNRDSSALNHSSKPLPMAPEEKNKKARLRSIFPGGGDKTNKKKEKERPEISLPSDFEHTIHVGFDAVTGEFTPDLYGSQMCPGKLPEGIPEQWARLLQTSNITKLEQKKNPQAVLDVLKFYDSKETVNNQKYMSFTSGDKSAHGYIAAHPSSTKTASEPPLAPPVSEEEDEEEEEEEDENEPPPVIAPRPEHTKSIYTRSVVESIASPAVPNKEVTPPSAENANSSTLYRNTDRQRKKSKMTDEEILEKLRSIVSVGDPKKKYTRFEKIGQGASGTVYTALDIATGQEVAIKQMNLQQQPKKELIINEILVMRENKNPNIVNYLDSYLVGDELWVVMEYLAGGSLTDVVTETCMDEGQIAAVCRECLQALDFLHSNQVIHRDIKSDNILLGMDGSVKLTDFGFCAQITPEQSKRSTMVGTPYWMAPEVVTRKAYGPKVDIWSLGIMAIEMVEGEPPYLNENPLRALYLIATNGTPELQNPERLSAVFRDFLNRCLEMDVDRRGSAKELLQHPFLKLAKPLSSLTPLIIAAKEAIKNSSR
- PROCEDURE_DETAILS: radiometric filter-binding kinase assay, Kinase HotSpot
- RUN_CONDITIONS: compound 0.5 µM; ATP 10 µM

- MOLECULE_SMILES: "CS(=O)(=O)CCNCc1ccc(-c2ccc3ncnc(Nc4ccc(OCc5cccc(F)c5)c(Cl)c4)c3c2)o1"
  residual activity: "105%"
- MOLECULE_SMILES: "COc1ccc2c(c1)/C(=C/c1cnc[nH]1)C(O)=N2"
  residual activity: "99.2%"
- MOLECULE_SMILES: "C[C@@H]1CCN(C(=O)CC#N)C[C@@H]1N(C)c1ncnc2[nH]ccc12"
  residual activity: "105%"
- MOLECULE_SMILES: "COc1ccc(C(=O)Nc2sc3c(c2C(N)=O)CCCC3)cc1OC"
  residual activity: "96.2%"
- MOLECULE_SMILES: "Ic1cccc(CSc2nnc(-c3ccncc3)o2)c1"
  residual activity: "92.9%"
- MOLECULE_SMILES: "N#Cc1c[nH]c2c[nH]/c(=N\\Cc3cccnc3)cc2/c1=N\\c1ccc(F)c(Cl)c1"
  residual activity: "99.2%"
- MOLECULE_SMILES: "COc1cc2ncnc(Nc3ccc(OCc4ccccc4)cc3)c2cc1OC"
  residual activity: "97.7%"
- MOLECULE_SMILES: "CN(C)CCCn1cc(C2=C(c3c[nH]c4ccccc34)C(=O)NC2=O)c2ccccc21"
  residual activity: "92.1%"
- MOLECULE_SMILES: "Cc1cccc(-c2nc(C(C)(C)C)[nH]c2-c2ccc3c(c2)OCO3)n1"
  residual activity: "95.9%"
- MOLECULE_SMILES: "Fc1ccc(-c2nc3n(c2-c2ccncc2)CCS3)cc1"
  residual activity: "104%"
